This listing pairs compounds with measured quenching association constant Ka.
testedTarget: apo-human transferrin (apo-hTf) (Homo sapiens)
Sequence (P02787 20-698): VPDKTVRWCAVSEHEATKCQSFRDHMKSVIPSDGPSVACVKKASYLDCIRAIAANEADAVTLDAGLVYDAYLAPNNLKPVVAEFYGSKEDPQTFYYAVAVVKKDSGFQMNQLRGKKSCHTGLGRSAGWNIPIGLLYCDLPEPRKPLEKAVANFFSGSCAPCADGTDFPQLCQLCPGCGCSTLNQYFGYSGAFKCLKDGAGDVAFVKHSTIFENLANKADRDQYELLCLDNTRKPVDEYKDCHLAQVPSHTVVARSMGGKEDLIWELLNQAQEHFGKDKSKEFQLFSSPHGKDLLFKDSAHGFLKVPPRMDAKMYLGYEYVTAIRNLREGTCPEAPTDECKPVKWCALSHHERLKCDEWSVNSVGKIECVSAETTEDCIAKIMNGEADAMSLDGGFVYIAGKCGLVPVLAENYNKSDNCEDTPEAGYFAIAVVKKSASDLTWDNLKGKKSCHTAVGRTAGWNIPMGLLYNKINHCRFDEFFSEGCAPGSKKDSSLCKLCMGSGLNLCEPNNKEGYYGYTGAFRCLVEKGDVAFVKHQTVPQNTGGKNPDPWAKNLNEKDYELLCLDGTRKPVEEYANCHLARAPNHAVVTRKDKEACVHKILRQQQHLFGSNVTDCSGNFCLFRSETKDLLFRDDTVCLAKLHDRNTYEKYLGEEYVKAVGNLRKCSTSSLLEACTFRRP
assayExplanation: Fluorescence quenching of apo-hTf
Type: binding
measurementSetup: 303 K, pH 7.4, modified Stern-Volmer
valueKind: quenching association constant Ka (M⁻¹)

{"compound": "C1CCCC1.C1CCCC1.[Cl][W][Cl]", "unitAnnotation": "M⁻¹", "val": 6000}
{"compound": "N.N.[Cl][Pt][Cl] [(NH3)2Pt(II)Cl2, cis-diamminedichloroplatinum (II), reference compound]", "unitAnnotation": "M⁻¹", "val": 1200}
{"compound": "[Cl-].[Cl-].[Ti+4].c1cc[cH-]c1.c1cc[cH-]c1 [Cp2TiCl2, titanocene dichloride]", "unitAnnotation": "M⁻¹", "val": 4100}
{"compound": "[Cl-].[Cl-].[Hf+4].c1cc[cH-]c1.c1cc[cH-]c1", "unitAnnotation": "M⁻¹", "val": 8100}
{"compound": "[Cl][Zr+2][Cl].c1cc[cH-]c1.c1cc[cH-]c1", "unitAnnotation": "M⁻¹", "val": 2600}
{"compound": "C1CCCC1.C1CCCC1.[Cl][Nb][Cl]", "unitAnnotation": "M⁻¹", "val": 408100}
{"compound": "[Cl-].[Cl-].[Mo+4].c1cc[cH-]c1.c1cc[cH-]c1", "unitAnnotation": "M⁻¹", "val": 15800}
{"compound": "[Cl-].[Cl-].[V+4].c1cc[cH-]c1.c1cc[cH-]c1", "unitAnnotation": "M⁻¹", "val": 337500}
